Readings of pIC50 for the listed compounds
- Test system: T. cruzi-infected H9C2 cardiomyocytes, high-content imaging
- PROCEDURE_TEXT: intracellular T. cruzi amastigote inhibition, imaging, H9C2 host cardiomyocytes, host toxicity (AID 1159565);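 further: infected cells incubated 72 h after plating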
- CONDITION_INFO: measured here: amastigotes per cell
pIC50: −log10 of the molar value.
QUANTITY_NAME: pIC50

[
  {
    "COMPOUND": "CCN(C)Cc1ccc(N2CCC(NS(=O)(=O)c3ccc4c(c3)CCO4)CC2)nc1",
    "QUANTITY_NAME": "pIC50",
    "RELATION_SIGN": "=",
    "OBSERVED_VALUE": 6.00
  },
  {
    "COMPOUND": "CN(C)Cc1cccc(Nc2nccc(-c3ccc(NCCN)c(C#N)c3)n2)c1",
    "QUANTITY_NAME": "pIC50",
    "RELATION_SIGN": "=",
    "OBSERVED_VALUE": 5.80
  },
  {
    "COMPOUND": "Cn1ccnc1CN1CCc2[nH]cnc2C1c1ccccc1OCc1ccccc1 (configuration not stated)",
    "QUANTITY_NAME": "pIC50",
    "RELATION_SIGN": "<",
    "OBSERVED_VALUE": 4.30
  },
  {
    "COMPOUND": "COc1ccc2ncc(F)c(CCN3CC[C@@H](NC(=O)c4cc5c(s4)CCC5)[C@@H](O)C3)c2n1",
    "QUANTITY_NAME": "pIC50",
    "RELATION_SIGN": "=",
    "OBSERVED_VALUE": 7.30
  },
  {
    "COMPOUND": "CC(C)S(=O)(=O)c1ccc(-c2cnc(N)c3cc(-c4ccnc(N)n4)ccc23)cc1",
    "QUANTITY_NAME": "pIC50",
    "RELATION_SIGN": "=",
    "OBSERVED_VALUE": 4.89
  },
  {
    "COMPOUND": "CS(=O)(=O)NC1CCC(Nc2ncc(Br)c(Nc3ccccc3C(N)=O)n2)CC1 (configuration not stated)",
    "QUANTITY_NAME": "pIC50",
    "RELATION_SIGN": "=",
    "OBSERVED_VALUE": 5.70
  },
  {
    "COMPOUND": "COc1ccnc2[nH]cc(-c3cc(C(=O)N[C@H](CO)c4ccccc4)co3)c12",
    "QUANTITY_NAME": "pIC50",
    "RELATION_SIGN": "=",
    "OBSERVED_VALUE": 5.10
  },
  {
    "COMPOUND": "NC(=O)c1cc(F)ccc1Nc1nc(NC2CCC(O)CC2)ncc1Br (configuration not stated)",
    "QUANTITY_NAME": "pIC50",
    "RELATION_SIGN": "=",
    "OBSERVED_VALUE": 6.10
  },
  {
    "COMPOUND": "COC(=O)c1ccc(-c2cnc3ccc(NCc4ccccn4)nn23)cc1",
    "QUANTITY_NAME": "pIC50",
    "RELATION_SIGN": "=",
    "OBSERVED_VALUE": 5.30
  },
  {
    "COMPOUND": "COc1ccccc1-n1c(SCC(=O)Nc2ccc3c(c2)OCO3)nc2c(c1=O)SCC2",
    "QUANTITY_NAME": "pIC50",
    "RELATION_SIGN": "=",
    "OBSERVED_VALUE": 5.10
  },
  {
    "COMPOUND": "O=C(CSc1nnc(-c2ccc3c(c2)OCO3)o1)N(Cc1ccco1)CC(F)(F)F",
    "QUANTITY_NAME": "pIC50",
    "RELATION_SIGN": "=",
    "OBSERVED_VALUE": 5.60
  },
  {
    "COMPOUND": "CCOc1ccc(NC(=O)c2ccc(NC(=O)NC3CCCCC3)cc2)cc1",
    "QUANTITY_NAME": "pIC50",
    "RELATION_SIGN": "<",
    "OBSERVED_VALUE": 4.30
  },
  {
    "COMPOUND": "Cc1ccc(C)c(OC2CCN(C(=O)C(C)n3ccnc3)CC2)c1 (configuration not stated)",
    "QUANTITY_NAME": "pIC50",
    "RELATION_SIGN": "=",
    "OBSERVED_VALUE": 6.49
  },
  {
    "COMPOUND": "CCOc1ccc(N(C)S(=O)(=O)c2ccc3[nH]cc(C(=O)NC4CCCC4)c(=O)c3c2)cc1",
    "QUANTITY_NAME": "pIC50",
    "RELATION_SIGN": "=",
    "OBSERVED_VALUE": 5.20
  },
  {
    "COMPOUND": "O=C1NCCn2ccc(Nc3nc(NC4CCC(O)CC4)ncc3Cl)c21 (configuration not stated)",
    "QUANTITY_NAME": "pIC50",
    "RELATION_SIGN": "=",
    "OBSERVED_VALUE": 5.49
  },
  {
    "COMPOUND": "Cc1occc1C(=O)Nc1ccccc1C(=O)Nc1nccs1",
    "QUANTITY_NAME": "pIC50",
    "RELATION_SIGN": "=",
    "OBSERVED_VALUE": 4.49
  },
  {
    "COMPOUND": "Cc1ccc2sc(NC(=O)Cn3cnc([N+](=O)[O-])n3)nc2c1",
    "QUANTITY_NAME": "pIC50",
    "RELATION_SIGN": "=",
    "OBSERVED_VALUE": 6.30
  },
  {
    "COMPOUND": "O=C(NCCc1ccccc1Cl)c1cccn1-c1cccnc1",
    "QUANTITY_NAME": "pIC50",
    "RELATION_SIGN": "=",
    "OBSERVED_VALUE": 6.30
  },
  {
    "COMPOUND": "COc1ccc(C(=O)NC2CCN(CCn3c(=O)ccc4ncc(F)cc43)CC2)cc1Cl",
    "QUANTITY_NAME": "pIC50",
    "RELATION_SIGN": "=",
    "OBSERVED_VALUE": 6.49
  },
  {
    "COMPOUND": "Cc1ccccc1NS(=O)(=O)c1ccc2[nH]cc(C(=O)NC3CCCC(C)C3C)c(=O)c2c1 (configuration not stated)",
    "QUANTITY_NAME": "pIC50",
    "RELATION_SIGN": "=",
    "OBSERVED_VALUE": 5.49
  },
  {
    "COMPOUND": "C[C@@H](Oc1cc(-n2cnc3ccc(C(O)CO)cc32)sc1C(N)=O)c1ccccc1C(F)(F)F (some centres not stated)",
    "QUANTITY_NAME": "pIC50",
    "RELATION_SIGN": "=",
    "OBSERVED_VALUE": 4.80
  },
  {
    "COMPOUND": "Cc1cc2cc(CNc3ccc4c(c3)OCO4)c(=O)n(CCO)c2cc1C",
    "QUANTITY_NAME": "pIC50",
    "RELATION_SIGN": "=",
    "OBSERVED_VALUE": 6.70
  },
  {
    "COMPOUND": "O=C(COc1ccccc1)Nc1ccccc1C(=O)Nc1nccs1",
    "QUANTITY_NAME": "pIC50",
    "RELATION_SIGN": "<",
    "OBSERVED_VALUE": 4.30
  },
  {
    "COMPOUND": "O=C(Cn1cnc2cc([N+](=O)[O-])ccc2c1=O)NCCc1ccc(Cl)cc1Cl",
    "QUANTITY_NAME": "pIC50",
    "RELATION_SIGN": "=",
    "OBSERVED_VALUE": 6.70
  },
  {
    "COMPOUND": "CN(Cc1nnnn1C1CCN(Cc2ccc(-n3ccnc3)cc2)CC1)c1ccc(F)cc1F",
    "QUANTITY_NAME": "pIC50",
    "RELATION_SIGN": "=",
    "OBSERVED_VALUE": 6.49
  },
  {
    "COMPOUND": "CCC(c1ccc(F)cc1)n1cncc1-c1cnn(C)c1 (configuration not stated)",
    "QUANTITY_NAME": "pIC50",
    "RELATION_SIGN": "=",
    "OBSERVED_VALUE": 6.49
  },
  {
    "COMPOUND": "COc1cccc(Nc2cc(C)nc(-c3ccccn3)n2)c1",
    "QUANTITY_NAME": "pIC50",
    "RELATION_SIGN": "=",
    "OBSERVED_VALUE": 5.10
  },
  {
    "COMPOUND": "O=C(NCCc1cccnc1)c1ccc(-c2ccccc2F)o1",
    "QUANTITY_NAME": "pIC50",
    "RELATION_SIGN": "=",
    "OBSERVED_VALUE": 6.70
  },
  {
    "COMPOUND": "CN(Cc1cccnc1)Cc1ccc(N2CCN(C(=O)C3(c4ccc(Cl)cc4)CC3)CC2)nc1",
    "QUANTITY_NAME": "pIC50",
    "RELATION_SIGN": "=",
    "OBSERVED_VALUE": 5.89
  },
  {
    "COMPOUND": "CC(C)CC(=O)NC(c1cccs1)c1ccc2cccnc2c1O (configuration not stated)",
    "QUANTITY_NAME": "pIC50",
    "RELATION_SIGN": "=",
    "OBSERVED_VALUE": 6.10
  },
  {
    "COMPOUND": "CN(Cc1nc2c(C(=O)N3CCN(Cc4ccccc4)CC3)cccc2[nH]1)C1CCCc2cccnc21 (configuration not stated)",
    "QUANTITY_NAME": "pIC50",
    "RELATION_SIGN": "=",
    "OBSERVED_VALUE": 6.30
  },
  {
    "COMPOUND": "O=C(CN(c1cccc(C(F)(F)F)c1)S(=O)(=O)c1ccc(Cl)cc1)NCc1ccc(F)c(F)c1",
    "QUANTITY_NAME": "pIC50",
    "RELATION_SIGN": "=",
    "OBSERVED_VALUE": 6.30
  },
  {
    "COMPOUND": "O=C1CN(C2CCCc3c(OCc4ccncc4)cccc32)C(=O)N1C1CCCCC1 (configuration not stated)",
    "QUANTITY_NAME": "pIC50",
    "RELATION_SIGN": "=",
    "OBSERVED_VALUE": 7.89
  },
  {
    "COMPOUND": "OC1CCC(Nc2nccc(-c3sc(C4CCOCC4)nc3-c3ccc(F)c(F)c3)n2)CC1 (configuration not stated)",
    "QUANTITY_NAME": "pIC50",
    "RELATION_SIGN": "=",
    "OBSERVED_VALUE": 6.70
  },
  {
    "COMPOUND": "CN(C)c1ncc(-c2cncn2CCOc2ccc(Cl)cc2)cn1",
    "QUANTITY_NAME": "pIC50",
    "RELATION_SIGN": "=",
    "OBSERVED_VALUE": 6.70
  },
  {
    "COMPOUND": "COc1ccc(CNc2nsc3ccccc23)cc1OC",
    "QUANTITY_NAME": "pIC50",
    "RELATION_SIGN": "=",
    "OBSERVED_VALUE": 4.70
  },
  {
    "COMPOUND": "CCCCc1cc(Nc2cc(C3CCC3)[nH]n2)nc(N2CCC2C(N)=O)n1 (configuration not stated)",
    "QUANTITY_NAME": "pIC50",
    "RELATION_SIGN": "=",
    "OBSERVED_VALUE": 5.80
  },
  {
    "COMPOUND": "c1ccc2[nH]c(-c3ccc(N4CCCC4)nc3)nc2c1",
    "QUANTITY_NAME": "pIC50",
    "RELATION_SIGN": "=",
    "OBSERVED_VALUE": 6.00
  },
  {
    "COMPOUND": "O=C(Nc1nccs1)c1ccccc1Cn1cc([N+](=O)[O-])cn1",
    "QUANTITY_NAME": "pIC50",
    "RELATION_SIGN": "<",
    "OBSERVED_VALUE": 4.30
  },
  {
    "COMPOUND": "Cn1nccc1-c1cc(OC(CN)c2ccccc2)cnc1-c1ccco1 (configuration not stated)",
    "QUANTITY_NAME": "pIC50",
    "RELATION_SIGN": "=",
    "OBSERVED_VALUE": 7.00
  },
  {
    "COMPOUND": "O=C(Nc1nc(-c2ccc(S(=O)(=O)N3CCOCC3)cc2)cs1)c1ccc([N+](=O)[O-])cc1",
    "QUANTITY_NAME": "pIC50",
    "RELATION_SIGN": "=",
    "OBSERVED_VALUE": 6.30
  },
  {
    "COMPOUND": "Cc1ccc(NC(=O)c2ccc([N+](=O)[O-])s2)cc1S(=O)(=O)N1CCOCC1",
    "QUANTITY_NAME": "pIC50",
    "RELATION_SIGN": "=",
    "OBSERVED_VALUE": 6.60
  }
]
